kon listing for selected binders.
- target.of.assay: T1, monkey GPC3-His protein (monkey)
- T1 construct: Bought recombinant protein; also called monkey GPC3 protein
- assay.text: SPR, antibody captured on Protein A chip, monkey GPC3-His analyte;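 also: run at 25 °C with 240 s association and up to 600 s dissociation, double-referenced, kinetics fitted to a 1:1 Langmuir binding model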
Note: unit M⁻¹ s⁻¹ is implicit; provide only the numeric part.

{"binder": "F1.3.9 (antibody, human IgG1, kappa, V domains shown, Human-murine chimeric antibody) VH: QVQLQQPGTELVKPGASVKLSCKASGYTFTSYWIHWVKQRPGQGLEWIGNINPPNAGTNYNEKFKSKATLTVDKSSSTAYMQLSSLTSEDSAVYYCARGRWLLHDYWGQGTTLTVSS VL: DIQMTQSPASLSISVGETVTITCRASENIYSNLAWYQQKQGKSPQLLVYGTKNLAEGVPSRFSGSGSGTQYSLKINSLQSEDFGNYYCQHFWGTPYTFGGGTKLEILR", "display.unit": "M⁻¹ s⁻¹", "kon": 38200}

Let's switch to this binder now.
Query string: Form field: reported kon of F4.13.7 (antibody, human IgG1, kappa, V domains shown, Human-murine chimeric antibody) VH: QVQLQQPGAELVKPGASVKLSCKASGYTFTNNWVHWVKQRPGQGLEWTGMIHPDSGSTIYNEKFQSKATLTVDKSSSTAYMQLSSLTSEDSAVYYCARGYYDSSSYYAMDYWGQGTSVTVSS VL: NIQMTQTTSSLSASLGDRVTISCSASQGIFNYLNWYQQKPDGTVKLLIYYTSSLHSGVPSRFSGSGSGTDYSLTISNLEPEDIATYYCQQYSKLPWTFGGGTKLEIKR
Result string: 84000
